Source of measurements: paper PMC10649086

- System: SARS-CoV-2-EGFP replicon L50F
- Type: cell-based
- CONDITION_PARAMETERS: read-out: EC50 Mean (SD)
EXPERIMENTAL_READOUT: pEC50
When answering, recall that pEC50 equals minus log10 of the concentration in mol/L, and write that number alone.

Which pEC50 is listed for N#C[C@H](C[C@@H]1CCCNC1=O)NC(=O)[C@H](CC1CC1)NC(=O)c1cc2cccc(Cl)c2[nH]1 [pomotrelvir] ? 7.85

---

- System: SARS-CoV-2 D614G B.1 (ancestral)
- Assay type: cell-based
- CONDITION_PARAMETERS: read-out: EC50 Mean (SD)
EXPERIMENTAL_READOUT: EC50 (nM)
Supply the numeric figure in nM, leaving out any unit text.

Which EC50 is listed for N#C[C@H](C[C@@H]1CCCNC1=O)NC(=O)[C@H](CC1CC1)NC(=O)c1cc2cccc(Cl)c2[nH]1 ? 151
